- TGT: UniProtKB Q16880
- ASSAY_REMARKS: Assay 1: CGT Enzymatic Assay (RapidFire/MS/MS, 0.01% Tween 80)
- Type: biochemical
- SETUP_CONDITIONS: Table 1, Compounds of Formula (I) and Formula (II); CGT enzymatic assay, C6-NBD-dihydro-galactosylceramide readout; read-out: IC50
Item-by-item account of IC50

Below: 5 compounds and their reported IC50.
1. Cc1ccc(N2C(=O)N(c3ccc(C#N)cc3)C(O)(c3cccc(OC(F)(F)F)c3)C23CCC3)cc1 (stereo not shown) [Compound 281] ... < 1000 nM
2. Cc1ccc(N2C(=O)N(c3ccc(C)cc3)C(O)(c3cccc(OC(F)(F)F)c3)C23CCCC3)cc1 (stereo not shown) [Example 327] ... < 1000 nM
3. Cc1ccc(N2C(=O)N(c3ccc(C#N)cc3)C(O)(c3cccc(OC(F)(F)F)c3)C2(C)C)cc1 (stereo not shown) [Example 314] ... < 1000 nM
4. COC[C@@]1(C)N(c2ccc(Cl)cc2)C(=O)N(c2ccc(Cl)cc2)C1(O)c1cccc(C#N)c1 (single isomer, unassigned) [Compound 297-1] ... < 1000 nM
5. Cc1ccc(N2C(=O)N(c3ccc(C)cc3)C(O)(c3cccc(C(F)F)c3)C23COC3)cc1 (stereo not shown) [Compound 285] ... < 1000 nM

Tested on UniProtKB Q16880, the item Cc1ccc(N2C(=O)N(c3ccc(C)cc3)C(O)(c3cccc(OC(F)(F)F)c3)C23COC3)cc1 (stereo not shown) [Compound 284] showed IC50 equal to < 1000 nM

Tested on UniProtKB Q16880, the item CC(F)(F)c1cccc(C2(O)N(c3ccc(Cl)cc3)C(=O)N(c3ccc(Cl)cc3)C23COC3)c1 (stereo not shown) [Compound 271] showed IC50 equal to < 1000 nM

* * *

Item-by-item account of IC50
- TGT: human CGT (Homo sapiens, UniProt Q16880)
- ASSAY_REMARKS: Assay 1: CGT Enzymatic Assay (RapidFire/MS/MS, 0.01% Tween 80)
- Assay type: biochemical
- SETUP_CONDITIONS: Table 1, Compounds of Formula (I) and Formula (II); CGT enzymatic assay; read-out: IC50

Below: 3 molecules and their reported IC50.
1) O=C1N(c2ccc(Br)cc2)[C@H](C2CC2)C(O)(c2ccccc2)N1c1ccc(Br)cc1 (stereo partly shown) ... < 1 µM
2) Cc1csc(C2(O)C(C)N(c3ccc(Br)cc3)C(=O)N2c2ccc(Br)cc2)c1 (stereo not shown) ... 1 to 10 µM
3) C[C@@]1(c2cccc(C(F)(F)F)c2)C(O)N(c2ccc(Cl)cc2)C(=O)N1c1ccc(Cl)cc1 (stereo partly shown) ... < 1 µM

Now for the molecule whose IC50 we want.
// recorded IC50 for CCC[C@@H]1N(c2ccc(Br)cc2)C(=O)N(c2ccc(Br)cc2)C1(O)c1cccc(OC(F)(F)F)c1 (stereo partly shown) : < 1 µM

* * *

Item-by-item account of pIC50
- TGT: human CGT (Homo sapiens, UniProt Q16880)
- ASSAY_REMARKS: Assay 1: CGT Enzymatic Assay (RapidFire/MS/MS, 0.01% Tween 80)
- Format: biochemical
- SETUP_CONDITIONS: Table 1, Compounds of Formula (I) and Formula (II); CGT enzymatic assay, C6-NBD-dihydro-galactosylceramide readout; read-out: IC50
pIC50: −log10 of the molar value.

Below: 2 molecules and their reported pIC50.
1) COc1ccc(N2C(=O)N(c3ccc(OC)cc3)C(O)(c3cccc(OC(F)(F)F)c3)C2C(C)C)cc1 (racemic) ... > 6.00
2) O=C1N(c2ccc(Cl)cc2)C2(COC2)C(O)(c2sccc2Br)N1c1ccc(Cl)cc1 (stereo not drawn) ... > 6.00

// recorded pIC50 for COC[C@@]1(C)N(c2ccc(Cl)cc2)C(=O)N(c2ccc(Cl)cc2)[C@@]1(O)c1cccc(OC(F)(F)F)c1 : 5.00 to 6.00

// recorded pIC50 for Cc1ccc(N2C(=O)N(c3ccc(Cl)cc3)C(O)(c3cccc(C#N)c3)C23CCC3)cc1 (stereo not drawn) : > 6.00

// recorded pIC50 for N#Cc1cc(C#N)cc(C2(O)N(c3ccc(Cl)cc3)C(=O)N(c3ccc(Cl)cc3)C23COC3)c1 (stereo not drawn) : > 6.00

// recorded pIC50 for N#Cc1ccc(N2C(=O)N(c3ccccc3)C3(CCC3)C2(O)c2cccc(OC(F)(F)F)c2)cc1 (stereo not drawn) : > 6.00

// recorded pIC50 for COCC1(C)N(c2ccc(Cl)cc2)C(=O)N(c2ccc(Cl)cc2)C1(O)c1cccc(C#N)c1 (stereo not drawn) : > 6.00

// recorded pIC50 for O=C1N(c2ccccc2)C2(CCC2)C(O)(c2cccc(OC(F)(F)F)c2)N1c1ccc(Cl)cc1 (stereo not drawn) : > 6.00

// recorded pIC50 for N#Cc1ccc(N2C(=O)N(c3ccc(Br)cc3)C(O)(c3cccc(C#N)c3)C23CCC3)cc1 (stereo not drawn) : > 6.00

// recorded pIC50 for Cc1ccc(N2C(=O)N(c3ccc(C)cc3)C(O)(c3cccc(OC(F)F)c3)C23COC3)cc1 (stereo not drawn) : > 6.00

// recorded pIC50 for N#Cc1ccc(N2C(=O)N(c3ccc(Cl)cc3)C3(CCC3)C2(O)c2cccc(C#N)c2)cc1 (stereo not drawn) : > 6.00

// recorded pIC50 for N#Cc1ccc(N2C(=O)N(c3ccc(Cl)cc3)C(O)(c3cccc(OC(F)(F)F)c3)C23CCC3)cc1 (stereo not drawn) : > 6.00

// recorded pIC50 for O=C1N(c2ccc(C(F)(F)F)cc2)C2(COC2)C(O)(c2cccc(OC(F)(F)F)c2)N1c1ccc(C(F)(F)F)cc1 (stereo not drawn) : > 6.00

// recorded pIC50 for CC1(C)N(c2ccc(Cl)cc2)C(=O)N(c2ccc(Cl)cc2)C1(O)c1cccc(C2COC2)c1 (stereo not drawn) : 5.00 to 6.00

// recorded pIC50 for Cc1ccc(N2C(=O)N(c3ccc(C#N)cc3)C(C)(C)C2(O)c2cccc(OC(F)(F)F)c2)cc1 (stereo not drawn) : > 6.00

* * *

- TGT: human CGT (Homo sapiens)
- ASSAY_REMARKS: Assay 1: CGT Enzymatic Assay (RapidFire/MS/MS, 0.01% Tween 80)
- Type: biochemical
- SETUP_CONDITIONS: Table 1, Compounds of Formula (I) and Formula (II); CGT enzymatic assay; read-out: IC50
pIC50: −log10 of the molar value.
PARAMETER: pIC50

Below: 3 compounds and their reported pIC50.
1. O=C1N(c2ccc(Br)cc2)C(=O)C(O)(c2ccc[nH]2)N1c1ccc(Br)cc1 (stereo not shown) ... 4.30 to 5.00
2. O=C1N(c2ccc(Cl)cc2)[C@@]2(CCOC2)[C@](O)(c2cccc(OC(F)(F)F)c2)N1c1ccc(Cl)cc1 ... > 6.00
3. CCC1N(c2ccc(F)cc2)C(=O)N(c2ccc(F)cc2)C1(O)c1cccc(C(F)(F)F)c1 (stereo not shown) ... 5.00 to 6.00

Now for the compound whose pIC50 we want.
Tested on human CGT (Homo sapiens), the item CC(C)[C@@H]1N(c2ccc(C(F)(F)F)cc2)C(=O)N(c2ccc(C(F)(F)F)cc2)C1(O)c1cccc(OC(F)(F)F)c1 (stereo partly shown) showed pIC50 equal to > 6.00

* * *

- TGT: UniProt:Q16880
- Sequence (Q16880 21-541): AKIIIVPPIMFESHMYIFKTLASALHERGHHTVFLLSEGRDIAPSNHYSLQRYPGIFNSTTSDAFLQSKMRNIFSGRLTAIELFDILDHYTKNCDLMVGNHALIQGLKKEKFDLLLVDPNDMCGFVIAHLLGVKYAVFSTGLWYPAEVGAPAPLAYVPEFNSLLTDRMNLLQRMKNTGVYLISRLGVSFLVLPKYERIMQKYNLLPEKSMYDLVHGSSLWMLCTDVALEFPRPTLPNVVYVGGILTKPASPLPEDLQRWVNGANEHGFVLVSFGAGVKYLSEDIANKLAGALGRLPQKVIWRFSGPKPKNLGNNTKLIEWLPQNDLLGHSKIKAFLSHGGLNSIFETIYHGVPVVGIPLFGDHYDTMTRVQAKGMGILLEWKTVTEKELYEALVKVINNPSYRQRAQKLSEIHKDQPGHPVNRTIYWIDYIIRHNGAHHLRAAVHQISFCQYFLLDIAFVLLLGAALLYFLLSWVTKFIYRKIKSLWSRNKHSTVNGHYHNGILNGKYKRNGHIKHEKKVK
- ASSAY_REMARKS: CGT Enzyme Assay (Biological Example 2, RapidFire/MS/MS method with 0.01% Tween 80 added)
- Format: biochemical
- SETUP_CONDITIONS: enzymatic assay, CHO/CGT lysate
Item-by-item account of IC50

1. C[C@H]1[C@H](c2cccc(C#N)c2)N(c2ccc(Cl)cc2)C(=O)N1c1ccc(Cl)cc1 ... 10 to 30 µM

// recorded IC50 for N#Cc1cccc([C@]23CCCC[C@H]2N(c2ccc(Cl)cc2)C(=O)N3c2ccc(Cl)cc2)c1 : 1 to 10 µM

// recorded IC50 for Cc1ccc(N2C(=O)N(c3ccc(Cl)cc3)[C@H](c3cccc(OC(F)(F)F)c3)C2(C)C)cc1 : 10 to 30 µM

// recorded IC50 for O=C1N(c2ccc(Cl)cc2)C2CCOC[C@]2(c2cccc(OC(F)(F)F)c2)N1c1ccc(Cl)cc1 (stereo partly shown) : 10 to 30 µM

// recorded IC50 for Cc1ccc(N2C(=O)N(c3ccc(Cl)cc3)[C@@H](c3cccc(OC(F)(F)F)c3)C2(C)C)cc1 : < 1 µM

// recorded IC50 for CC[C@@]1(C)[C@H](c2cccc(C#N)c2)N(c2ccc(Cl)cc2)C(=O)N1c1ccc(Cl)cc1 : < 1 µM

// recorded IC50 for CC1(C)[C@H](c2cccc(C#N)c2)N(c2ccc(C(F)(F)F)cc2)C(=O)N1c1ccc(C(F)(F)F)cc1 : 10 to 30 µM
